- Tested on: Yap1 mRNA
- protocol: Dose-dependent inhibition of human Yap1 in A-431 cells (Example 8, 10,000 cells per well, RTS4814)
- Assay type: cell-based
- applied_conditions: 500.0 nM; A-431 cells, 10,000 cells per well, free uptake, approximately 48 hours, RTS4814
Strand notation (5' to 3'): a small letter for the sugar, then the base; units joined by * are phosphorothioate-linked, units joined directly phosphodiester-linked; [ ] holds rarer units or linkages, { } end groups; capitals alone tell only the bases. k = constrained ethyl (cEt); [5mC] = 5-methylcytosine; d = 2'-deoxy (DNA)
Class definitions on Yap1 mRNA, % UTC: class 1: < 6 % UTC; class 2: ≥ 6 % UTC and < 10 % UTC; class 3: ≥ 10 % UTC

substance="1076465 (kG*k[5mC]*kT*dT*dA*dA*dG*dG*dA*dA*dT*dA*dT*kA*k[5mC]*kA; antisense) [compound 1076465]" assigned_label="class 3"
substance="1074419 (kA*kT*kT*d[5mC]*dT*dT*dT*dA*dG*dA*dG*d[5mC]*d[5mC]*kA*kA*k[5mC]; antisense) [compound 1074419]" assigned_label="class 1"
substance="1074477 (kG*kT*kT*d[5mC]*d[5mC]*dG*dA*d[5mC]*dA*dA*dA*dA*d[5mC]*k[5mC]*kA*kA; antisense) [compound 1074477]" assigned_label="class 3"
substance="1075088 (kA*kT*kT*dT*dA*dT*dA*dG*dT*d[5mC]*dA*dG*dG*kT*kT*k[5mC]; antisense) [compound 1075088]" assigned_label="class 1"
substance="1074850 (kT*kT*kG*dT*dT*dA*dT*dG*dA*dT*dA*dG*dG*k[5mC]*kA*k[5mC]; antisense) [compound 1074850]" assigned_label="class 2"
substance="1076453 (GTAATATTGCAATCTG; 3-10-3 cEt gapmer, further chemistry not given here) [compound 1076453]" assigned_label="class 1"
substance="1075785 (k[5mC]*kA*kT*dT*dT*dT*dA*dT*dA*dG*dG*dG*d[5mC]*k[5mC]*kA*kT; antisense) [compound 1075785]" assigned_label="class 1"
substance="1074420 (kG*kA*kT*dT*d[5mC]*dT*dT*dT*dA*dG*dA*dG*d[5mC]*k[5mC]*kA*kA; antisense) [compound 1074420]" assigned_label="class 1"
substance="1074723 (antisense kG*kG*kT*dA*dA*dA*dG*dG*dA*dA*dG*dA*dT*k[5mC]*kT*k[5mC]) [compound 1074723]" assigned_label="class 3"
substance="1076460 (kT*kA*kA*dT*dA*dT*dA*dG*d[5mC]*d[5mC]*d[5mC]*d[5mC]*dT*kT*k[5mC]*kA; antisense) [compound 1076460]" assigned_label="class 3"
substance="1075053 (antisense kA*kA*kT*dA*dT*dA*dT*dA*d[5mC]*dT*dT*dG*dA*kT*k[5mC]*k[5mC]) [compound 1075053]" assigned_label="class 2"
substance="1076523 (kA*kT*kT*dT*dA*dT*dA*dT*d[5mC]*dA*dG*dG*dT*k[5mC]*kA*kA; antisense) [compound 1076523]" assigned_label="class 3"
substance="1075115 (kG*kT*kA*dT*dA*dG*d[5mC]*d[5mC]*dT*dT*dA*dT*dT*k[5mC]*kT*kT; antisense) [compound 1075115]" assigned_label="class 3"
substance="1076524 (kA*kA*kT*dT*dT*dA*dT*dA*dT*d[5mC]*dA*dG*dG*kT*k[5mC]*kA; antisense) [compound 1076524]" assigned_label="class 3"
substance="1074726 (antisense kG*kG*kT*dA*dT*dA*dA*d[5mC]*dT*dG*dG*dG*d[5mC]*kA*kA*kA) [compound 1074726]" assigned_label="class 1"
substance="1075699 (kG*kA*kT*dT*dT*dA*dT*dA*d[5mC]*dT*d[5mC]*dA*dG*kG*kT*kT; antisense) [compound 1075699]" assigned_label="class 1"
substance="1076143 (kG*kA*kT*dA*d[5mC]*dG*dA*dA*dA*dA*dA*dA*dG*k[5mC]*k[5mC]*kA; antisense) [compound 1076143]" assigned_label="class 3"
substance="1074608 (DNA kG*kT*kT*dA*d[5mC]*dA*dT*d[5mC]*dA*dT*d[5mC]*dT*d[5mC]*kT*kT*k[5mC]) [compound 1074608]" assigned_label="class 2"
substance="1076260 (k[5mC]*kT*kT*dA*dA*dT*dT*dT*dA*dA*d[5mC]*dT*d[5mC]*k[5mC]*kT*kG; antisense) [compound 1076260]" assigned_label="class 3"
substance="1074851 (kA*kT*kT*dG*dT*dT*dA*dT*dG*dA*dT*dA*dG*kG*k[5mC]*kA; antisense) [compound 1074851]" assigned_label="class 2"
substance="1074593 (DNA kA*kG*kG*dA*dG*d[5mC]*dA*dA*dG*dT*d[5mC]*dT*dT*kG*kT*kA) [compound 1074593]" assigned_label="class 2"
substance="1074407 (kT*kA*kA*dA*dG*dT*dA*dT*d[5mC]*dT*dT*dG*d[5mC]*kT*kG*kG; antisense) [compound 1074407]" assigned_label="class 3"
